molecular target: SecA-340C (Escherichia coli, UniProt P10408, C885S/C887S/C896S/C98S/T340C); format: binding
Sequence (P10408 whole entry C98S/T340C/C885S/C887S/C896S): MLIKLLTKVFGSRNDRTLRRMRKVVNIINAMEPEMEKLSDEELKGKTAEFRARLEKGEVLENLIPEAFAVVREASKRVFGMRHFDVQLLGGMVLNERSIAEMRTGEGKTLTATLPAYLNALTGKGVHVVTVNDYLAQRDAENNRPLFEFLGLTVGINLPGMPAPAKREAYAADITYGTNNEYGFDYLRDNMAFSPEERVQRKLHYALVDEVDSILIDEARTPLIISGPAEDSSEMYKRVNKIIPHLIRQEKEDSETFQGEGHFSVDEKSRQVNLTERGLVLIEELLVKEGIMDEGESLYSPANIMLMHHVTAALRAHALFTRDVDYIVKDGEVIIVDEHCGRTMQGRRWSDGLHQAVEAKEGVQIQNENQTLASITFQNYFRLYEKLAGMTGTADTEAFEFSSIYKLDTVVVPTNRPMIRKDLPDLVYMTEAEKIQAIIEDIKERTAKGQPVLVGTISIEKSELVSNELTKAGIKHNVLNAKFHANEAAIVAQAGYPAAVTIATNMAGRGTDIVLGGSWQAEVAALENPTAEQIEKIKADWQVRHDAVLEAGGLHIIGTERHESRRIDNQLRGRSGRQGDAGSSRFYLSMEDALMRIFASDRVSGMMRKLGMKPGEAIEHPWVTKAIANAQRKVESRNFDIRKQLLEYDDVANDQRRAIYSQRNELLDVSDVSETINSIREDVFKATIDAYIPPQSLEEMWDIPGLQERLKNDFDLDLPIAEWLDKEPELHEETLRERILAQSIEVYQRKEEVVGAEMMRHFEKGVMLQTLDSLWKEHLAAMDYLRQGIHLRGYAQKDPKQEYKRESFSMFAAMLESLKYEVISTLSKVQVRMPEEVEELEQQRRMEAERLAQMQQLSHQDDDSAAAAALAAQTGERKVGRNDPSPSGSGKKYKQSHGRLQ
No end group written: not given here.
Kd reference
Property label: Kd (µM)

{"columns": ["Substance", "Tested system", "Value observed"],
 "data": [
  ["MCKQSTIALALLPLLYTPVTKARTPEMPVLENRAAQGDITA-NH2 [SP41]", "SecA-340C (Escherichia coli, UniProt P10408, C885S/C887S/C896S/C98S/T340C)", 6.2],
  ["MKQSTIALALLPLLFTPVTKAC-NH2 [SP22]", "SecA-340C (Escherichia coli, UniProt P10408, C885S/C887S/C896S/C98S/T340C)", 1.1]
]}

Measured values drawn from paper PMC3717379 for this set.
